System: EKVX NSCLC
Assay: NCI tumour cell line growth inhibition, 48 h
Experimental readout: TGI

Some solved cases for reference:
- O=C(O)c1ccn(-c2cccc(-n3ccc(C(=O)O)n3)n2)n1: > 100 µM
- CCOc1ccccc1N=Nc1c(C)[nH]n(-c2nc(-c3ccccc3)cs2)c1=O: > 100 µM
- C=C1C(=O)OC2C1C(OC(=O)/C(C)=C/C)CC(O)(CCl)C1C(O)C3OC3(C)C21O (stereo not given): > 50 µM
- Cc1ccc(N2C(=O)C3C=CC(n4[nH]c(=O)n(Cc5ccccc5)c4=O)CC3C2=O)cc1 (stereo not given): > 100 µM

Next molecule, TGI to be filled in.
The value of TGI measured for the molecule `C[C@]12CC[C@H]3[C@@H](CC[C@]4(O)C[C@@H](O)CC[C@]34/C=N/O)[C@@]1(O)CC[C@@H]2C1=COC(=O)C1` turned out to be 0.344 µM

---

Test system: MDA-N
Assay: NCI tumour cell line growth inhibition, 48 h
Experimental readout: TGI

Some solved cases for reference:
* C=C1C(=O)OC2/C=C(/C)C(OC(C)=O)CC(O)/C(C)=C\C(OC(=O)/C(C)=C\C)C12 (stereo not given) | > 100 µM
* CCN(CC)c1ccc2cc(C(=O)Nc3cccc4ccccc34)c(=N)oc2c1 | > 100 µM
* S=C1SCN(Cc2ccco2)CN1c1ccc(Br)cc1 | 94.8 µM
* Nc1ccccc1CC(O)C(=O)O (stereo not given) | > 100 µM
* NC(=S)N/N=C/c1ncccc1N | > 10 µM
* COc1cc(C2c3cc4c(cc3OC(NNC(N)=O)C2C)OCO4)cc(OC)c1O (stereo not given) | 1.02 µM

The value of TGI measured for the molecule c1cn(C23C4C5C6C4C2C6C53)cn1 (stereo not given) turned out to be > 100 µM

The value of TGI measured for the molecule `O=C(c1cc(Cl)ccc1Cl)N1CCN(C(=O)c2cc(Cl)ccc2Cl)CC1` turned out to be > 100 µM

The value of TGI measured for the molecule `CC1(C)CC(=O)c2c(nc3ccc4ccccc4c3c2-c2ccc(NC(=O)CCCCCCCCC(=O)Nc3ccc(-c4c5c(nc6ccc7ccccc7c46)CC(C)(C)CC5=O)cc3)cc2)C1` turned out to be > 100 µM

The value of TGI measured for the molecule `COc1ccc(-n2c(=O)n(C)c(=O)n2-c2ccc(OC)cc2)cc1` turned out to be > 100 µM

---

Tested on: SK-MEL-28 melanoma
Assay: NCI tumour cell line growth inhibition, 48 h
Experimental readout: TGI

* CN(/N=C/c1cccc2cccnc12)c1ccccc1 | > 100 µM
* Cc1ccc(CNc2c3ccccc3nc3cc(NC(=O)CCN4CCCC4)ccc23)cc1 | 3.09 µM
* COc1ccc(/C=N/N=C(\N)NO)c(OC)c1 | > 100 µM

Next compound, TGI to be filled in.
The value of TGI measured for the compound `O=C(O)c1ccn(-c2cccc(-n3ccc(C(=O)O)n3)n2)n1` turned out to be > 100 µM

---

Test system: UO-31 renal
Test: NCI tumour cell line growth inhibition, 48 h
Overview of reported GI50 across a group of compounds:

• O=C(Nc1cccc(NC(=O)Nc2cc(C(F)(F)F)ccc2Cl)c1)Nc1cc(C(F)(F)F)ccc1Cl = 2490 nM

The value of GI50 measured for the compound `CCc1ccc(NC(=O)COC(=O)c2cc([N+](=O)[O-])ccc2Sc2nnnn2C)cc1` turned out to be 24900 nM

The value of GI50 measured for the compound `O=C1c2ccccc2-c2c1c1ccccc1c(=O)n2CCN1CCOCC1` turned out to be 64400 nM

The value of GI50 measured for the compound `O=C(COc1ccc(/C=C2\Oc3ccccc3C2=O)cc1)Nc1nc2c(s1)CCCC2` turned out to be 1870 nM

The value of GI50 measured for the compound Cn1cc(C2=C(c3cccc(OCC(O)CO)c3)C(=O)NC2=O)c2ccccc21 (stereo not drawn) turned out to be > 25000 nM

The value of GI50 measured for the compound `COc1ccc(/C=C\c2cc(OC)c(OC)c(OC)c2)cc1OC` turned out to be 805 nM

The value of GI50 measured for the compound `CC(C)(O)CC(=O)NCCn1ccc2ncnc(Nc3ccc(Oc4cccc(C(F)(F)F)c4)c(Cl)c3)c21` turned out to be 1120 nM

The value of GI50 measured for the compound COc1ccc(C2SC(C)C(=O)N2NC(=O)C(O)c2ccccc2)cc1OC (stereo not drawn) turned out to be > 100000 nM

The value of GI50 measured for the compound Nc1nc(Nc2ccc(C3CCC(N4CCOCC4)CC3)cc2)nn1-c1ccccn1 (stereo not drawn) turned out to be 2480 nM

The value of GI50 measured for the compound COc1ccc(/C=C2\CCCC3=C2NC(N)=NC3c2ccc(OC)c(OC)c2)cc1OC (stereo not drawn) turned out to be 11800 nM

The value of GI50 measured for the compound `Nc1[nH]nc2nc(-c3cccs3)cc(C(F)(F)F)c12` turned out to be > 25000 nM

The value of GI50 measured for the compound `C1CN(SSN2CCOCC2)CCO1` turned out to be 49500 nM

The value of GI50 measured for the compound `O=C(Nc1ccc(Cl)c(Cl)c1)O/N=C\c1c(Cl)ccc([N+](=O)[O-])c1Cl` turned out to be 1450 nM

---

Tested on: NCI-H23 lung
Test: NCI tumour cell line growth inhibition, 48 h
Experimental readout: GI50

Some solved cases for reference:
- CCOc1ccccc1N=Nc1c(C)[nH]n(-c2nc(-c3ccccc3)cs2)c1=O: > 74.1 µM
- C/C=C(\C)C(=O)O[C@H]1C=CC(=O)O[C@@H]1CC[C@H](O)[C@H](C)O: 69.1 µM
- CCN(CC)Cc1ccc(Nc2nccc(-c3cnn4ncccc34)n2)cc1: 0.0217 µM
- COc1ccc2c(c1)C(=O)c1c-2c(N(C)C)nc2ccccc12: > 100 µM

Hey, NCI-H23 lung data for `CCc1ccc(NC(=O)COC(=O)c2cc([N+](=O)[O-])ccc2Sc2nnnn2C)cc1` : GI50 came out at 9.79 µM

---

Overview of reported TGI across a group of compounds:
Test system: UO-31 renal
Experiment: NCI tumour cell line growth inhibition, 48 h

The value of TGI measured for the compound `COc1ccc2c(c1)C(=O)c1c-2c(N(C)C)nc2ccccc12` turned out to be > 100 µM

The value of TGI measured for the compound `CC#CC(=O)SCCNC(=O)CC` turned out to be > 10 µM

The value of TGI measured for the compound COC(=O)C(Cc1ccccc1)NP(=O)(O)OCC1OC(n2cc(F)c(=O)[nH]c2=O)CC1O (configuration not stated) turned out to be > 100 µM

The value of TGI measured for the compound Nc1nc(Nc2ccc(C3CCC(N4CCOCC4)CC3)cc2)nn1-c1ccccn1 (configuration not stated) turned out to be > 33.7 µM

The value of TGI measured for the compound O=c1c2ccccc2nc(-c2ccccc2)n1NC1OC(CO)C(O)C(O)C1O (configuration not stated) turned out to be > 100 µM

The value of TGI measured for the compound `N#Cc1ccccc1-c1nc2c3c(c(N)ccc3n1)C(=O)c1ccccc1-2` turned out to be > 100 µM

The value of TGI measured for the compound `Cc1nc2c(sc(=S)n2-c2ccccc2)c(=O)[nH]1` turned out to be > 100 µM

The value of TGI measured for the compound `O=C(/C=C/c1ccc([N+](=O)[O-])cc1)c1ccc2c3c(cccc13)CC2` turned out to be > 62.6 µM

The value of TGI measured for the compound `O=C(O)c1nc(-c2ccccc2)[nH]c1C(=O)O` turned out to be 24.8 µM

The value of TGI measured for the compound O=C1c2c(O)cccc2C(C2OC(CO)C(O)C(O)C2O)c2cc(CO)cc(O)c21 (configuration not stated) turned out to be > 100 µM

The value of TGI measured for the compound `COc1ccc(C)cc1Nc1nnc(-c2ccccc2N)s1` turned out to be > 100 µM

The value of TGI measured for the compound `CCCCN(CCCC)c1ccc(C(=N)c2ccc(N(CCCC)CCCC)cc2)cc1` turned out to be 1.38 µM

The value of TGI measured for the compound `COc1cc2cc[n+]3c(C)c4cc(OC)c(OC)cc4c([O-])c3c2cc1OC` turned out to be > 100 µM

---

Tested on: HCC-2998 colon
Experiment: NCI tumour cell line growth inhibition, 48 h
Overview of reported GI50 across a group of compounds:

Some solved cases for reference:
* O=C(COc1ccc(/C=C2\Oc3ccccc3C2=O)cc1)Nc1nc2c(s1)CCCC2 | 16 µM
* COc1ccc2c(c1)C(=O)c1c-2c(N(C)C)nc2ccccc12 | > 100 µM
* Cc1ccc(S(=O)(=O)Nc2cccc3[nH]c(C(F)(F)F)nc23)cc1 | 2.89 µM

The value of GI50 measured for the compound `O=C1c2ccccc2-c2c1c1ccccc1c(=O)n2CCN1CCOCC1` turned out to be 42.5 µM

The value of GI50 measured for the compound Nc1nc(Nc2ccc(C3CCC(N4CCOCC4)CC3)cc2)nn1-c1ccccn1 (stereo not given) turned out to be 17.2 µM
